molecular target: Protein kinase C theta type (Homo sapiens); assay: Inhibition of PKCtheta (unknown origin) at 50 nM by Z'LYTE screening method relative to control
Sequence (Q04759 whole entry, looked up): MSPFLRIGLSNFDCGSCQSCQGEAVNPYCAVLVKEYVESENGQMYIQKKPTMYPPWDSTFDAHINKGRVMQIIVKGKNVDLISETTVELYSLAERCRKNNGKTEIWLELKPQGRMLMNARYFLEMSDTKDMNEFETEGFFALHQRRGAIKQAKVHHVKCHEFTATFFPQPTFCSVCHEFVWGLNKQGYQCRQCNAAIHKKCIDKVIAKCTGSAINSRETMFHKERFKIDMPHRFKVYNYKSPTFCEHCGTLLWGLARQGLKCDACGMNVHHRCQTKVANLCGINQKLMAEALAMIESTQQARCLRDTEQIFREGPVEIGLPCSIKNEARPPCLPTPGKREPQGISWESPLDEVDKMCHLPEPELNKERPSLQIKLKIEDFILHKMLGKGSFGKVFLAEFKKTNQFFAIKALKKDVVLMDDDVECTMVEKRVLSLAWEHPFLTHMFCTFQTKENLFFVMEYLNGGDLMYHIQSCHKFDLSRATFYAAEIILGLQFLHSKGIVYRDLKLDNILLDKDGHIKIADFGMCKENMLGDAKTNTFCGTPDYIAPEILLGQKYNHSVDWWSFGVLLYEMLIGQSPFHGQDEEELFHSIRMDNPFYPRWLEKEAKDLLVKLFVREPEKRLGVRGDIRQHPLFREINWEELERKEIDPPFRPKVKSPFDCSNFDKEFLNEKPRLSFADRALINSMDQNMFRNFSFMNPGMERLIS
# maps each entry to its inhibition

{"columns": ["Molecule", "Result"],
 "data": [
  ["CCN(CC)CCCC(C)Nc1nc(-n2[se]c3ccccc3c2=O)nc2[nH]cnc12 (stereo not given)", "83%"],
  ["C[C@@H]1[C@H]2C[C@@H](C[C@H]1Nc1nc(-n3[se]c4ccccc4c3=O)nc3[nH]cnc13)C2(C)C", "16%"],
  ["O=c1c2ccccc2[se]n1-c1nc(N[C@@H]2C[C@H]3CC[C@@H]2C3)c2nc[nH]c2n1", "15%"],
  ["O=C1c2ccccc2CN1c1nc(NC2CCCC2)c2nc[nH]c2n1", "7%"]
]}

Could you now look at the following molecule, please?
Lab note: molecule `O=c1c2ccccc2[se]n1-c1nc(N[C@H]2CC[Se]C2)c2nc[nH]c2n1` tested on Protein kinase C theta type (Homo sapiens); recorded inhibition was 98%

* * *

target: Ribosomal protein S6 kinase beta-1 (Homo sapiens); experiment: Inhibition of p70S6K (unknown origin) at 50 nM by Z'LYTE screening method relative to control
Below is a list of entries, each paired with its recorded inhibition value.
Answer shape: numeric part, then the unit.

Sample answers from the record:
{"columns": ["Compound", "inhibition"],
 "data": [
  ["O=C1c2ccccc2CN1c1nc(N[C@H]2CC[Se]C2)c2nc[nH]c2n1", "2%"],
  ["O=c1c2ccccc2[se]n1-c1nc(Nc2ccccc2)c2nc[nH]c2n1", "0%"],
  ["CCCNc1nc(-n2[se]c3ccccc3c2=O)nc2[nH]cnc12", "0%"]
]}

Recorded result, CCN(CC)CCCC(C)Nc1nc(-n2[se]c3ccccc3c2=O)nc2[nH]cnc12 (centres undefined) , inhibition: 0%

* * *

molecular target: Protein kinase C beta type (Homo sapiens); experiment: Inhibition of PKCbeta1 (unknown origin) at 50 nM by Z'LYTE screening method relative to control
Readout name: inhibition (%)
Please respond with the number in % and leave the unit unwritten.

{"columns": ["Molecule", "Quantitative result"],
 "data": [
  ["O=C1c2ccccc2CN1c1nc(N[C@H]2CC[Se]C2)c2nc[nH]c2n1", 7],
  ["O=c1c2ccccc2[se]n1-c1nc(NC2CCCCC2)c2nc[nH]c2n1", 59]
]}

The recorded inhibition for entry CCN(CC)CCCC(C)Nc1nc(N2Cc3ccccc3C2=O)nc2[nH]cnc12 (configuration not stated) equals 5

For record `O=c1c2ccccc2[se]n1-c1nc(N[C@H]2CCOC2)c2nc[nH]c2n1` the listed inhibition is 84

Record summary for `O=C1c2ccccc2CN1c1nc(NC2CCCC2)c2nc[nH]c2n1` : reported inhibition = 0

According to the records, this molecule CCN(CC)CCCC(C)Nc1nc(-n2[se]c3ccccc3c2=O)nc2[nH]cnc12 (configuration not stated) displays inhibition of 8

# molecule `O=c1c2ccccc2[se]n1-c1nc(N[C@H]2CC[Se]C2)c2nc[nH]c2n1` ; its inhibition = 95

* * *

molecular target: Protein kinase C alpha type (Homo sapiens) (UniProt P17252); test: Inhibition of PKCalpha (unknown origin) at 50 nM by Z'LYTE screening method relative to control
Readout name: inhibition (%)
The figure you give is taken to be in %; do not add the unit.

{"columns": ["Molecule", "inhibition / %"],
 "data": [
  ["O=c1c2ccccc2[se]n1-c1nc(N[C@H]2CC[Se]C2)c2nc[nH]c2n1", 100]
]}

Summary line: `CCCNc1nc(-n2[se]c3ccccc3c2=O)nc2[nH]cnc12` , Protein kinase C alpha type (Homo sapiens) (UniProt P17252), reported inhibition = 17

Summary line: CCN(CC)CCCC(C)Nc1nc(-n2[se]c3ccccc3c2=O)nc2[nH]cnc12 (stereo not drawn) , Protein kinase C alpha type (Homo sapiens) (UniProt P17252), reported inhibition = 18

Entry `O=c1c2ccccc2[se]n1-c1nc(Nc2ccccc2)c2nc[nH]c2n1` , tested on Protein kinase C alpha type (Homo sapiens) (UniProt P17252), has a reported inhibition of 18

Hey, Protein kinase C alpha type (Homo sapiens) (UniProt P17252) data for `O=C1c2ccccc2CN1c1nc(N[C@H]2CC[Se]C2)c2nc[nH]c2n1` : inhibition came out at 3

Reported inhibition (Protein kinase C alpha type (Homo sapiens) (UniProt P17252)) for entry `O=c1c2ccccc2[se]n1-c1nc(N[C@H]2CCOC2)c2nc[nH]c2n1` is 91

Result for CCN(CC)CCCC(C)Nc1nc(N2Cc3ccccc3C2=O)nc2[nH]cnc12 (stereo not drawn) , tested on Protein kinase C alpha type (Homo sapiens) (UniProt P17252), inhibition: 3

Protein kinase C alpha type (Homo sapiens) (UniProt P17252) data for `O=C1c2ccccc2CN1c1nc(NC2CCCC2)c2nc[nH]c2n1` ; its inhibition: 0

* * *

Reported inhibition values follow for various compounds
target: Serine/threonine-protein kinase D3 (Homo sapiens); assay: Inhibition of PKCnu (unknown origin) at 50 nM by Z'LYTE screening method relative to control
Report the figure along with its unit, number first.

Example entries begin here.
{"columns": ["Compound", "Readout name", "Result"],
 "data": [
  ["O=C1c2ccccc2CN1c1nc(NC2CCCCC2)c2nc[nH]c2n1", "inhibition", "0%"],
  ["O=C1c2ccccc2CN1c1nc(NC2CCCC2)c2nc[nH]c2n1", "inhibition", "4%"],
  ["CCN(CC)CCCC(C)Nc1nc(-n2[se]c3ccccc3c2=O)nc2[nH]cnc12 (centres undefined)", "inhibition", "11%"]
]}

For `O=c1c2ccccc2[se]n1-c1nc(N[C@@H]2C[C@H]3CC[C@@H]2C3)c2nc[nH]c2n1` the compound record lists inhibition as 1%

* * *

molecular target: Eukaryotic elongation factor 2 kinase (Homo sapiens) (UniProt O00418); test: Inhibition of EEF2K (unknown origin) at 50 nM by Z'LYTE screening method relative to control
Sequence (O00418 whole entry): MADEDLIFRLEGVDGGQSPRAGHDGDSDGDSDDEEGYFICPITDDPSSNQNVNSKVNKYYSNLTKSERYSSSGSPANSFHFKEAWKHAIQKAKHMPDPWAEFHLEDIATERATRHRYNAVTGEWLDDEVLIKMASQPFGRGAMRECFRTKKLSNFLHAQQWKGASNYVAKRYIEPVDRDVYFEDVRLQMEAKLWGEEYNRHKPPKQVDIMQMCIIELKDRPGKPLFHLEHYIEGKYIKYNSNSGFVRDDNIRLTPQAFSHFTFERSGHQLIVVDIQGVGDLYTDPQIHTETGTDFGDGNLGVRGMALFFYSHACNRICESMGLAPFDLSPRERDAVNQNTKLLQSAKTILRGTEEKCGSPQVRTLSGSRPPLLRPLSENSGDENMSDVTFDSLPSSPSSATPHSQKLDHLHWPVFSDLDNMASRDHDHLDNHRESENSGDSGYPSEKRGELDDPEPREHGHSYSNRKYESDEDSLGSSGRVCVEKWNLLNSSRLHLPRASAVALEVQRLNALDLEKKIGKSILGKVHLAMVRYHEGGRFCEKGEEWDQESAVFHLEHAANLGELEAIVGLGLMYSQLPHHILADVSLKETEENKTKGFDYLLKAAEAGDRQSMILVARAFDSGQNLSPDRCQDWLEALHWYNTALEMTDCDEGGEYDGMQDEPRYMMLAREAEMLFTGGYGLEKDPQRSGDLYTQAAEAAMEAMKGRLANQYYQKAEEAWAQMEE
Listed here are molecules together with their documented inhibition.
Note: unit % is implicit; provide only the numeric part.

Measured inhibition for this entry `C[C@@H]1[C@H]2C[C@@H](C[C@H]1Nc1nc(-n3[se]c4ccccc4c3=O)nc3[nH]cnc13)C2(C)C` on Eukaryotic elongation factor 2 kinase (Homo sapiens) (UniProt O00418): 2

The molecule `O=C1c2ccccc2CN1c1nc(N[C@H]2CC[Se]C2)c2nc[nH]c2n1` , when measured on Eukaryotic elongation factor 2 kinase (Homo sapiens) (UniProt O00418), yielded inhibition of 2

Lab entry: Eukaryotic elongation factor 2 kinase (Homo sapiens) (UniProt O00418) assay, molecule `O=c1c2ccccc2[se]n1-c1nc(N[C@H]2CCOC2)c2nc[nH]c2n1` , inhibition = 2
